I'd be grateful if you could share measured Test G rating (% disease control) for these entries.
Test system: Erysiphe graminis f sp. tritici
Experiment: Test G: wheat powdery mildew, preventive spray on wheat seedlings
Conditions: 10 ppm; wheat powdery mildew; 100 = 100% disease control, 0 = no control
Give bare numbers, in %.

- COMPOUND: "OC(Cn1cncn1)(C1=NOC(Cc2ccccc2)C1)c1ccc(Cl)cc1 (single isomer, unassigned) [Compound 137]"
  RECORDED_ENDPOINT: "Test G rating (% disease control)"
  REPORTED_RESULT: 99
- COMPOUND: "OC(Cn1cncn1)(C1=NOC(c2ccc(Cl)cc2)C1)c1ccc(Cl)cc1Cl (single isomer, unassigned) [Compound 140]"
  RECORDED_ENDPOINT: "Test G rating (% disease control)"
  REPORTED_RESULT: 99

List Test G rating (% disease control) for every entry below, keeping the order given.
1. CC(C)(C)C(O)(Cn1cncn1)C1=NOC(CSc2ccccc2)C1 (single isomer, unassigned) [Compound 74]
2. CC1(C(O)(Cn2cncn2)C2=NOC(c3ccc(Cl)cc3)C2)CC1 (single isomer, unassigned) [Compound 126]

OUTPUT:
56
99

List Test G rating (% disease control) for every entry below, keeping the order given.
1. CC(C)(C)C(O)(Cn1cncn1)C1=NOC(c2ccc(-n3cc(Br)cn3)cc2)C1 (single isomer, unassigned) [Compound 7]
2. CC(C)(C)C(O)(Cn1cncn1)C1=NOC(Cc2ccc(Br)cc2)C1 (single isomer, unassigned) [Compound 53]
3. OC(Cn1cncn1)(C1=NOC(COc2ccc(OCc3ccccc3)cc2)C1)c1ccc(Cl)cc1 (single isomer, unassigned) [Compound 69]
4. CC(C)(C)C(O)(Cn1cncn1)C1=NOC(Cn2ccc(C(F)(F)F)n2)C1 (single isomer, unassigned) [Compound 48]

OUTPUT:
100
99
94
99

INPUT: Consider the compound CC(C)(C)CC(O)(Cn1cncn1)C1=NOC(c2ccc(Cl)cc2)C1 (single isomer, unassigned) [Compound 139] and give its measured Test G rating (% disease control).
OUTPUT: 99
